# Test system: Staphylococcus aureus
# experiment-description: Antibacterial activity against methicillin-resistant Staphylococcus aureus 2111-10-USA300 harboring cfr gene assessed as growth inhibition
# Type: functional
property-measured: MIC (µg/mL)
Answer in µg/mL, number only, no unit symbol.

Use the examples below as a reference point.
CC[C@H]1OC(=O)[C@H](C)[C@@H](OC(=O)N2CC(C)(C)C[C@@H]2c2ccc(Cl)c(Cl)c2)[C@H](C)[C@@H](O[C@@H]2O[C@H](C)C[C@H](N(C)C)[C@H]2O)[C@](C)(OC)C[C@@H](C)C(=O)[C@H](C)[C@H]2NC(=O)O[C@@]21C
0.25
CC[C@H]1OC(=O)[C@H](C)[C@@H](OC(=O)N2CCCC2)[C@H](C)[C@@H](O[C@@H]2O[C@H](C)C[C@H](N(C)C)[C@H]2O)[C@](C)(OC)C[C@@H](C)C(=O)[C@H](C)[C@H]2NC(=O)O[C@@]21C
16

For the next question, use this molecule.
Request: Name the recorded MIC of the molecule listed here: `CC[C@H]1OC(=O)[C@H](C)[C@@H](OC(=O)N2CCC[C@H]2c2ccccc2)[C@H](C)[C@@H](O[C@@H]2O[C@H](C)C[C@H](N(C)C)[C@H]2O)[C@](C)(OC)C[C@@H](C)C(=O)[C@H](C)[C@H]2NC(=O)O[C@@]21C`
Response: 0.5

Recorded values, source ChEMBL document CHEMBL2331530.
